The entries below come with measured pKd values attached.
test.system: T1, LNX2_2, Q8N448
T1 sequence (Q8N448 334-432, limits assumed, looked up): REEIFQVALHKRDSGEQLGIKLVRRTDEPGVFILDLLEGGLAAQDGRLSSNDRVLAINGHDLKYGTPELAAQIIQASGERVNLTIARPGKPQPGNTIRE
protocol: holdup assay
Design: key: below the threshold = too weak to quantify, mostly under pKd 3.1 to 4
condition.set: plain residues with an end cap or a label only (N-terminal biotin on a linker: ado-ado)

{"binder": "IQISELETNV [SLC1A7, O00341]", "pKd": 4.02}
{"binder": "ATKDKKITTV [EXOC4, Q96A65]", "pKd": 5.24}

Data provenance is paper PMC9482650.
